# assay.details: protein stability index of a GFP-peptide fusion (yeast GPS) (PSI 1-4); higher = more stable; sorted into four equal gates, so the index is relative within each strain
# condition.label: ubr1∆
Quick rule: protein stability index of at least 3 means Satisfied, below that means Not satisfied.

Previously resolved entries follow.
sequence.code	class
YSIPHPSENLLNIRIQT [RPC19]	Not satisfied
KRPIESGTSSDPDTKKV [YIL149C/MLP2]	Satisfied
LGYTHIAINFTVNHSEK [RPP1]	Not satisfied
TPGSVSLSAYNLTDEGY [PRP8]	Not satisfied
INFKSREAIRPGHEMED [AAR2]	Satisfied
TEVERAKSLLKLQLGQL [COR1]	Not satisfied
YQLYTSNPSGNYTGWKA [PRE9]	Satisfied
NRKRIVTLRKSLYTNTS [RPL3]	Not satisfied

Query :: Hi team, for ESKPFSSDALSKEKANF [SIR4] , is the recorded protein stability index at or above 3?
Result :: Not satisfied

Query :: Hi team, for KGAATGKGRQSAKAELE [PRE10] , is the recorded protein stability index at or above 3?
Result :: Not satisfied

Query :: Hi team, for GTKSNEKKDSGSSKPAF [YJL041W/NSP1] , is the recorded protein stability index at or above 3?
Result :: Satisfied

Query :: Hi team, for CTFSMEPYHFISNYNTK [SRB8] , is the recorded protein stability index at or above 3?
Result :: Not satisfied
